- Experiment: Clearance rate was evaluated in rats
- Format: ADME, organism-based
- Stated Conditions: rat, in vivo; read-out: Clearance rate
Measure Name: clearance (mL/min/kg)

* C[C@H](NC(=O)[C@@H](Cc1c[nH]c2ccccc12)NC(=O)CCc1c[nH]cn1)C(=O)N[C@@H](Cc1c[nH]c2ccccc12)C(=O)N[C@H](Cc1ccccc1)C(=O)N[C@H](CO)CCCCN | 39

---

- Experiment: Compound was evaluated for oral bioavailability in human
- Format: ADME, organism-based
- Stated Conditions: in vivo
Where a SMILES comes first, the peptide text is derived from it. [ ]: non-standard residue; d: D form.
Measure Name: bioavailability

* C[C@H](NC(=O)[C@@H](Cc1c[nH]c2ccccc12)NC(=O)[C@@H](N)Cc1c[nH]cn1)C(=O)N[C@@H](Cc1c[nH]c2ccccc12)C(=O)N[C@H](Cc1ccccc1)C(=O)N[C@@H](CCCCN)C(N)=O (H-H[dW]AW[dF]K-NH2) | 0.3%
